Can you tell me protein stability index for the items I'm about to list?
B1: DLC1 (parent)
chain: AEVVKIRDSFSNQNTETKDTKSR

- Variants of: B1
- ASSAY SUMMARY: protein stability index of a GFP-peptide fusion (GPS, HEK-293T) (PSI 1-6); higher = more stable;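 further: lentivirally expressed fusions sorted by FACS into six bins by GFP to DsRed ratio, PSI derived from sequencing read proportions per bin multiplied by bin number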
- TEST CONTEXT: c terminus: native

Completed entries (count: 6):
GET /values?readout=protein stability index&item= K18H
2.98

Same thing, different variant: T17P
2.97

# iterate: K18N
1.98

# repeat for K21H
2.96

Can you check S9M next?
2.92

Check E2G too.
1.95

---
So what does the record say about protein stability index for Q13Y ?
2.92
